Measured values drawn from patent US4839374A for this set.

System: compound 48/80-induced lethality
Method summary: Protection of rats from compound 48/80-induced lethality
Type: in vivo, rats of an inbred Wistar strain
Experimental parameters: Rattus norvegicus, 4 h, read-out: Compound 48/80 lethality test in rats ED50, s.c. or p.o. 1 h before compound 48/80 0.5 mg/kg i.v.; protection of 50% of animals, survival after 4 hours
Consider the following molecules; for each one, report its ED50.
Include the unit after the number when you answer.

ED50 in this record for Cc1nc2n(c(=O)c1CCN1CCC(Cc3nc4ccccc4n3Cc3ccc(F)cc3)CC1)CCCC2 [Compound 498] : 0.08 mg/kg

Value of measured ED50 for the entry Cc1nc2scc(C)n2c(=O)c1CCN1CCC(Cc2nc3cccnc3n2Cc2ccco2)CC1 [Compound 151] : 0.02 mg/kg

In plain terms, COc1ccc(CCN2CCC(Cc3nc4ccccc4n3Cc3ccco3)CC2)cc1 [Compound 229] has a documented ED50 of 0.04 mg/kg

Given item CC(=O)CCN1CCC(Cc2nc3ccccc3n2Cc2ccc(F)cc2)CC1 [Compound 102] , the value recorded as its ED50 is 0.02 mg/kg

Kindly note the recorded ED50 for O=C(NCCN1CCC(Cc2nc3ccccc3n2Cc2ccc(F)cc2)CC1)c1cc2ccccc2oc1=O [Compound 445] , which is 0.16 mg/kg

// ED50 value for COc1ccc(Cn2c(CC3CCN(CCCn4c(=O)[nH]c5ccccc54)CC3)nc3ccccc32)cc1 [Compound 154] : 0.08 mg/kg

Lab note: Cc1nc2ccccn2c(=O)c1CCN1CCC(Cc2nc3cccnc3n2Cc2ccc(F)cc2)CC1 [Compound 177] gave ED50 of 0.04 mg/kg

// Fc1ccc(Cn2c(CC3CCN(Cc4ccccc4)CC3)nc3ccncc32)cc1 [Compound 25] : ED50 value = 0.16 mg/kg

* * *

System: compound 48/80-induced lethality
Method summary: Protection of rats from compound 48/80-induced lethality
Type: in vivo, rats of an inbred Wistar strain
Experimental parameters: Rattus norvegicus, 4 h, read-out: Compound 48/80 lethality test in rats ED50, s.c. or p.o. 1 h before compound 48/80 0.5 mg/kg i.v.; protection of 50% of animals, survival after 4 hours
Metric name: ED50 (mg/kg)
Write the value in mg/kg as a bare number.

ED50 recorded for this molecule, Cc1nc2n(c(=O)c1CCN1CCC(Cc3nc4cccnc4n3Cc3ccc(F)cc3)CC1)CCCS2 [Compound 205] , is 0.08

Quick note, ED50 for COc1ccc(CCN2CCC(Cc3nc4cccnc4n3Cc3ccc(F)cc3)CC2)cc1 [Compound 236] landed at 0.08

Noted for Fc1ccc(Cn2c(CC3CCN(CCNc4cc(Cl)ncn4)CC3)nc3ccccc32)cc1 [Compound 384] : its ED50 reads 0.08

Quick note, ED50 for O=[N+]([O-])c1cc[n+]([O-])cc1NCCN1CCC(Cc2nc3ccccc3n2Cc2ccc(F)cc2)CC1 [Compound 379] landed at 0.08

Lookup result for CSc1nc2cncnc2n1CCN1CCC(Cc2nc3ccccc3n2Cc2ccc(F)cc2)CC1 [Compound 507] ; measured ED50: 0.16

* * *

Kindly supply the reported ED50 values for the records listed here.
Test system: compound 48/80-induced lethality
Method summary: Protection of rats from compound 48/80-induced lethality
Assay type: in vivo, rats of an inbred Wistar strain
Experimental parameters: Rattus norvegicus, 4 h, read-out: Compound 48/80 lethality test in rats ED50, s.c. or p.o. 1 h before compound 48/80 0.5 mg/kg i.v.; protection of 50% of animals, survival after 4 hours
// return numeric value only (unit: mg/kg, not printed)

Value of measured ED50 for the entry Cc1ccc(Cn2c(CC3CCN(CCO)CC3)nc3ccccc32)cc1 : 0.08

Lab note: Cc1nc2ccccn2c(=O)c1CCN1CCC(Cc2nc3ncccc3n2Cc2ccc(F)cc2)CC1 gave ED50 of 0.08

The value of ED50 measured for the molecule Fc1ccc(Cn2c(CC3CCN(CCn4c(S)nc5cncnc54)CC3)nc3ccccc32)cc1 turned out to be 0.04

Quick note, ED50 for Cc1ccc(Cn2c(CC3CCN(C)CC3)nc3ccccc32)cc1 landed at 0.08

Noted for Cn1cnc2c(NCCN3CCC(Cc4nc5ccccc5n4Cc4ccc(F)cc4)CC3)ncnc21 : its ED50 reads 0.04

// sample NC(=O)CN1CCC(Cc2nc3ccccc3n2Cc2ccc(F)cc2)CC1 , its ED50 was 0.04

ED50 reading for O=c1[nH]c2ccccc2c(=O)n1CCN1CCC(Cc2nc3cccnc3n2Cc2ccc(F)cc2)CC1 : 0.04

Notebook: O=C(NCCN1CCC(Cc2nc3ccccc3n2Cc2ccc(F)cc2)CC1)c1ccsc1 , ED50 read as 0.04

* * *

For each record, write down the corresponding ED50.
Tested on: compound 48/80-induced lethality
Method summary: Protection of rats from compound 48/80-induced lethality
Format: in vivo, rats of an inbred Wistar strain
Experimental parameters: Rattus norvegicus, 4 h, read-out: Compound 48/80 lethality test in rats ED50, s.c. or p.o. 1 h before compound 48/80 0.5 mg/kg i.v.; protection of 50% of animals, survival after 4 hours
Give just the numeric value; mg/kg need not be written.

# ED50 measured on compound 48/80-induced lethality for item COc1ccc(Cn2c(CC3CCN(CC#N)CC3)nc3ccccc32)cc1 [Compound 293] = 0.08

Record O=c1[nH]c2ccccc2c(=O)n1CCN1CCC(Cc2nc3ccccc3n2Cc2ccc(F)cc2)CC1 [Compound 209] / compound 48/80-induced lethality, ED50 recorded as 0.08

Item: OC(COc1ccc2ccccc2c1)CN1CCC(Cc2nc3ccccc3n2Cc2ccc(F)cc2)CC1 (centres unmarked) [Compound 116] | System: compound 48/80-induced lethality | ED50: 0.16

Fill in: compound 48/80-induced lethality ED50 for CN1CCC(Oc2nc3ccccc3n2Cc2ccc(F)cc2)CC1 [Compound 85] = 0.01

Result for Cn1c(=O)n(CCN2CCC(Cc3nc4cccnc4n3Cc3ccco3)CC2)c(=O)c2ccccc21 [Compound 170] , tested on compound 48/80-induced lethality, ED50: 0.08

I looked up CN1CCC(Cc2nc3cccnc3n2Cc2ccc(F)cc2)CC1 [Compound 90] and its ED50 for compound 48/80-induced lethality was 0.01

Simply: Fc1ccc(Cn2c(CC3CCN(CCNc4ncccn4)CC3)nc3ncccc32)cc1 [Compound 348] , compound 48/80-induced lethality, ED50 = 0.04

Noted ED50 for c1ccc(Cn2c(CC3CCN(CCNc4ncccn4)CC3)nc3cccnc32)cc1 [Compound 345] , tested on compound 48/80-induced lethality: 0.08

* * *

Tested on: compound 48/80-induced lethality
Method summary: Protection of rats from compound 48/80-induced lethality
Format: in vivo, rats of an inbred Wistar strain
Experimental parameters: Rattus norvegicus, 4 h, read-out: Compound 48/80 lethality test in rats ED50, s.c. or p.o. 1 h before compound 48/80 0.5 mg/kg i.v.; protection of 50% of animals, survival after 4 hours
Metric name: log10 ED50 (log10 of the value in mg/kg)
Record value = log10 of ED50 given in mg/kg.

Entry COc1ccc(CCN2CC[C@@H](Oc3nc4ccccc4n3Cc3ccc(F)cc3)[C@H](C)C2)cc1 (relative stereo) — recorded log10 ED50 = -0.80

molecule Cc1nc2ccccn2c(=O)c1CCN1CCC(Cc2nc3ccccc3n2Cc2ccco2)CC1 , log10 ED50 observed: -1.40

Field log10 ED50 (entry Fc1ccc(Cn2c(CC3CCN(CCNc4ncc[nH]4)CC3)nc3ccccc32)cc1 ) reads -1.40

Kindly note the recorded log10 ED50 for Cc1nc2ccccn2c(=O)c1CCN1CCC(Cc2nc3ccccc3n2Cc2cccs2)CC1 , which is -1.70

log10 ED50 measured on CC(C)N1CCC(Cc2nc3ccccc3n2Cc2ccccc2)CC1 = -1.10

For Cn1c(=O)n(CCN2CCC(Cc3nc4ccccc4n3Cc3ccco3)CC2)c(=O)c2ccccc21 the molecule record lists log10 ED50 as -1.40

// field: log10 ED50; key: Fc1ccc(Cn2c(CC3CCN(CCNc4nccs4)CC3)nc3cccnc32)cc1 ; value = -1.70

Just so you know, measured log10 ED50 for Cn1cnc([N+](=O)[O-])c1N1CCC(N2CCC(Cc3nc4ccccc4n3Cc3ccc(F)cc3)CC2)CC1 came out at -0.51

* * *

Test system: compound 48/80-induced lethality
Method summary: Protection of rats from compound 48/80-induced lethality
Type: in vivo, rats of an inbred Wistar strain
Experimental parameters: Rattus norvegicus, 4 h, read-out: Compound 48/80 lethality test in rats ED50, s.c. or p.o. 1 h before compound 48/80 0.5 mg/kg i.v.; protection of 50% of animals, survival after 4 hours
Metric name: ED50 (mg/kg)
Write the answer as a number in mg/kg, unit excluded.

Summary for this molecule, Cc1nc2ccccn2c(=O)c1CCN1CCC(Sc2nc3ccccc3n2Cc2ccc(F)cc2)CC1 : ED50 is 0.16

ED50 for Nc1ccccc1C(=O)NCCN1CCC(Cc2nc3ccncc3n2Cc2ccc(F)cc2)CC1 is 0.02

Sure, the documented ED50 for COc1ccc(Cn2c(CC3CCN(CCNc4nccs4)CC3)nc3cccnc32)cc1 is 0.08

Form: molecule = Fc1ccc(Cn2c(CC3CCNCC3)nc3ccncc32)cc1 ; ED50 = 0.04

Lookup result for Fc1ccc(Cn2c(CC3CCN(CCc4cccs4)CC3)nc3ccccc32)cc1 ; measured ED50: 0.04

Form field ED50, entry Fc1ccc(Cn2c(CC3CCN(CCN4CCOCC4)CC3)nc3cccnc32)cc1 : 0.04
